Data provenance is patent US20240109974A1.

# EXPERIMENTAL SYSTEM: T1, Human TNFR2-His (Sino 10417-H08H) (human, UniProt P20333 23-257)
# T1 construct: Bought protein; also called recombinant human TNFR2 protein; not shown: His tag
# T1 sequence (looked up): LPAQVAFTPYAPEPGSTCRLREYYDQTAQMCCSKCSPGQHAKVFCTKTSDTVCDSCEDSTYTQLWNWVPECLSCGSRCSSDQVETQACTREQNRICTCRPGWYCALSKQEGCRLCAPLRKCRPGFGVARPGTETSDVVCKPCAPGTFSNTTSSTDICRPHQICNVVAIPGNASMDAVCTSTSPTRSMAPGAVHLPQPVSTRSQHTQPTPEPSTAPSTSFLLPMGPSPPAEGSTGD
# METHOD DESCRIPTION: ELISA, human TNFR2-His coated; EC50 against 219-WT
MEASURED PROPERTY: % Relative activity (WT antibody/test antibody)

Consider the binder shown here: 219-Hu1 (antibody, V domains shown, also called VH3 + VL5) VH: QVQLVQSGAEVKKPGASVKVSCKASGYSFTNYWMNWVRQAPGQRLEWMGMIHPSDTETRLNQNFKDRVTITRDTSASTAYMELSSLRSEDTAVYYCARGEGLGAARSVSMDYWGQGTLVTVSS VL: DIQMTQSPSSLSASVGDRVTITCRASQDISNYLNWYQQKPDGTVKLLIYYTAILHSGVPSRFSGSGSGTDYSLTISSLQPEDFATYFCQQGNTLPWTFGQGTKVEIK What is its recorded % Relative activity (WT antibody/test antibody)?
83.1%
